Entries and their melting point

Past entries and their recorded results:
Query: Check the records and state melting point for "O=C1CNC2(CCCCC2)C(=O)N1"
Reply: 184 to 186 °C

Query: Check the records and state melting point for "c1ccc(Nc2nnns2)cc1"
Reply: 144 to 146 °C

Query: Check the records and state melting point for "NCc1ccc(N2CCN(c3ccccc3)CC2)nc1"
Reply: 111 to 113 °C

Query: Check the records and state melting point for "CN1CCN(S(=O)(=O)c2ccc(N)cc2)CC1"
Reply: 231 to 233 °C

Query: Check the records and state melting point for "CC1=NC2(CCCC2)C(=O)N1"
Reply: 66 to 68 °C

Query: Check the records and state melting point for "CC1(C)OCC(C)(C(=O)O)CO1"
Reply: 117 to 119 °C

Query: Check the records and state melting point for "O=S(=O)(Cl)c1cccc2c1OCCO2"
Reply: 74 to 76 °C

Query: Check the records and state melting point for "Cn1cccc1C(=O)NC1CCNCC1"
Reply: 195 to 197 °C

Query: Check the records and state melting point for CC(Oc1ccc(C(C)(C)C)cc1)C(=O)O (stereo not given)
Reply: 93 to 95 °C

Query: Check the records and state melting point for CC(O)CS(=O)(=O)c1ccccc1 (stereo not given)
Reply: 46 to 48 °C

Next:
Query: Check the records and state melting point for "O=C(O)CS(=O)(=O)c1cccc(Br)c1"
Reply: 139 to 141 °C
